- System: Staphylococcus aureus
- experiment: Antibacterial activity against epidemic methicillin-resistant Staphylococcus aureus 16 after 18 hrs
- Assay type: functional
Listing of recorded MIC by entry.

compoundString: C=C(C)[C@@H]1CCC(C)=C[C@H]1c1c(O)cc(CCCCC)c(C(=O)O)c1O
MIC: 2 µg/mL
--
compoundString: CCCCCc1cc(O)cc(O)c1
MIC: 64 µg/mL
--
compoundString: CCn1cc(C(=O)O)c(=O)c2cc(F)c(N3CCNCC3)cc21
MIC: 128 µg/mL
--
compoundString: C=C(C)[C@@H]1CCC(C)=C[C@H]1c1c(O)cc(CCCCC)c(C(=O)OCCc2ccccc2)c1O
MIC: > 128 µg/mL
--
compoundString: C=C(C)[C@@H]1CCC(C)=C[C@H]1c1c(O)cc(CCCCC)c(C(=O)OC)c1O
MIC: > 128 µg/mL
--
compoundString: C=C(C)[C@@H]1CCC(C)=C[C@H]1c1c(O)cc(CCCCC)cc1OC
MIC: > 128 µg/mL
--
compoundString: CCCCCc1cc(OC(C)=O)c(C/C=C(\C)CCC=C(C)C)c(OC(C)=O)c1
MIC: > 128 µg/mL
--
compoundString: CN(C)[C@@H]1C(O)=C(C(N)=O)C(=O)[C@@]2(O)C(O)=C3C(=O)c4c(O)cccc4[C@@](C)(O)[C@H]3C[C@@H]12
MIC: 0.125 µg/mL
--
compoundString: CCCCCc1cc(O)c(C/C=C(\C)CCC=C(C)C)c(O)c1C(=O)OCCc1ccccc1
MIC: > 128 µg/mL
